meta.source: patent US20250018014A1

Below, each entry is listed alongside its reported 50% inhibition concentration, Regnase-1 phosphorylation by TBK1 (AlphaScreen).
# Test target: T1, full-length human Regnase-1 with a FLAG tag on the N-terminal side and a biotin ligase BirA recognition … (human, UniProt Q5D1E8 1-599, biotinylated at the BirA recognition sequence when required)
# T1 sequence: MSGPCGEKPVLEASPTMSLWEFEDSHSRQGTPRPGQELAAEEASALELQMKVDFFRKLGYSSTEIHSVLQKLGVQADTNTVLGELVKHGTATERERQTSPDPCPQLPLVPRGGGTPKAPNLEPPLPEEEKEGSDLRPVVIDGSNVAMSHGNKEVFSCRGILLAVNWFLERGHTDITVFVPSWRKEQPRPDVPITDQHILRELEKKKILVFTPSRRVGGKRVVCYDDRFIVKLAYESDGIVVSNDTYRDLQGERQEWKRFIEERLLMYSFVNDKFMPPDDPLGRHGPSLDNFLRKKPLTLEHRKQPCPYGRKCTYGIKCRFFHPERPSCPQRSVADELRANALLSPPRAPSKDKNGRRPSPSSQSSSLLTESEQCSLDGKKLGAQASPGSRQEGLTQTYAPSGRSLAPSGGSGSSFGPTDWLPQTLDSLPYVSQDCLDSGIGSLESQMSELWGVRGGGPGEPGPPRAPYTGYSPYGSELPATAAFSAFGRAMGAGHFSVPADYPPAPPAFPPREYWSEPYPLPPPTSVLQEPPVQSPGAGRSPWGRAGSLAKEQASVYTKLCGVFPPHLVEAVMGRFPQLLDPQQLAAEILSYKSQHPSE
# Assay text: cell-based or functional assay
Field format: number, assumed µM, no unit text.

binder="XNSWYKIWGLD (HELM PEPTIDE1{[meA].N.S.W.Y.K.I.W.G.L.D.[C1CCN([*:1])C1]}$PEPTIDE1,PEPTIDE1,1:R1-11:R3$$$V2.0; SMILES CC[C@H](C)[C@@H]1NC(=O)[C@H](CCCCN)NC(=O)[C@H](Cc2ccc(O)cc2)NC(=O)[C@H](Cc2c[nH]c3ccccc23)NC(=O)[C@H](CO)NC(=O)[C@H](CC(N)=O)NC(=O)[C@H](C)N(C)C(=O)C[C@@H](C(=O)N2CCCC2)NC(=O)[C@H](CC(C)C)NC(=O)CNC(=O)[C@H](Cc2c[nH]c3ccccc23)NC1=O) [PP21]" measurement=13.5

In the following, a different binder is considered.
Query: 50% inhibition concentration, Regnase-1 phosphorylation by TBK1 (AlphaScreen) lookup needed for XNSWYINIWGHD (HELM PEPTIDE1{[meA].N.S.W.Y.I.N.I.W.G.H.D.[C1CCN([*:1])C1]}$PEPTIDE1,PEPTIDE1,1:R1-12:R3$$$V2.0; SMILES CC[C@H](C)[C@@H]1NC(=O)[C@H](CC(N)=O)NC(=O)[C@H]([C@@H](C)CC)NC(=O)[C@H](Cc2ccc(O)cc2)NC(=O)[C@H](Cc2c[nH]c3ccccc23)NC(=O)[C@H](CO)NC(=O)[C@H](CC(N)=O)NC(=O)[C@H](C)N(C)C(=O)C[C@@H](C(=O)N2CCCC2)NC(=O)[C@H](Cc2c[nH]cn2)NC(=O)CNC(=O)[C@H](Cc2c[nH]c3ccccc23)NC1=O) [PP15] , thanks.
Reply: 8.5
